This collection of values is drawn from paper PMC10397247.

- target-system: T1, 4H1845-bN
- T1 chain: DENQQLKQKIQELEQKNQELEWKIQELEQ
- assay-comment: two-hybrid library CCNG1;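 also: natural log of median RNA to DNA barcode read ratio; higher means stronger binding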
Reported interaction score by item:

Study these solved cases before continuing.
{"binder": "DENQQLEQKIQELKQENQELKWEIQELEQ [4H1369-bN]", "observed-value": -1.4}
{"binder": "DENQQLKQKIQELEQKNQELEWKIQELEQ [4H1845-bN]", "observed-value": 0.0957}
{"binder": "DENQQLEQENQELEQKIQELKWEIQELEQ [4H1193-bN]", "observed-value": -0.197}
{"binder": "DENQQLEQKIQELEQKIQELKWKNQELKQ [4H1328-bN]", "observed-value": -1.61}

q: Quick one: interaction score for DENQQLEQENQELKQKIQELKWEIQELEQ [4H1257-bN] ?
a: -0.503

q: Quick one: interaction score for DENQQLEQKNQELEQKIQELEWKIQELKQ [4H1446-bN] ?
a: -1.65

q: Quick one: interaction score for DENQQLKQKIQELEQKIQELEWENQELKQ [4H1828-bN] ?
a: -0.541
